Field: IC50. Provide a value for each of the compounds that follow.
Entry rule: numbers only, all in nM.

Lab note: need IC50 for CCCCC1CCC(OC(=O)N[C@@H](CC(C)C)C(=O)N[C@H](C=O)C[C@@H]2CCNC2=O)CC1 (stereo partly shown) on 3CLpro of SARS-CoV (Severe acute respiratory syndrome coronavirus), anyone have it?
900

Tell me reported IC50 for CC(C)C[C@H](NC(=O)OC1CCCCC1)C(=O)N[C@H](C=O)C[C@@H]1CCNC1=O , tested with 3CLpro of SARS-CoV (Severe acute respiratory syndrome coronavirus).
3900

Hello, I am looking for reported IC50 with 3CLpro of SARS-CoV (Severe acute respiratory syndrome coronavirus) for CC(C)C[C@H](NC(=O)OC1CCC(F)(F)CC1)C(=O)N[C@H](C=O)C[C@@H]1CCNC1=O . Could you help?
2300

Record CCCCC1CCC(OC(=O)N[C@@H](CC(C)C)C(=O)N[C@@H](C[C@@H]2CCNC2=O)C(O)S(=O)(=O)O)CC1 (stereo partly shown) : what is its IC50 with 3CLpro of SARS-CoV (Severe acute respiratory syndrome coronavirus)?
1000

// fetch 3CLpro of SARS-CoV (Severe acute respiratory syndrome coronavirus) IC50 for CC(C)C[C@H](NC(=O)OC1CCC(F)(F)CC1)C(=O)N[C@@H](C[C@@H]1CCNC1=O)C(O)S(=O)(=O)O (stereo partly shown)
2200

Report IC50 for CC(C)C[C@H](NC(=O)OC1CCCCC1)C(=O)N[C@@H](C[C@@H]1CCNC1=O)C(O)S(=O)(=O)O (stereo partly shown) tested on 3CLpro of SARS-CoV (Severe acute respiratory syndrome coronavirus).
3800

Missing value: IC50, 3CLpro of SARS-CoV (Severe acute respiratory syndrome coronavirus), entry CC(C)C[C@H](NC(=O)OCC1CCC(F)(F)CC1)C(=O)N[C@@H](C[C@@H]1CCNC1=O)C(O)S(=O)(=O)O (stereo partly shown) . Fill in?
1100
